Field: stoichiometry N. Provide a value for each of the proteins that follow.
assayed.system: the molecule itself
experimental.details: SEC
Number only, no unit.

Endpoint output: stoichiometry N of pZIP4-ECD R87C variant (domain or fragment) SGQGALDRVALGGLLNTLAARVHCTSGPCGKCLSVDDLLALGRPEEPGHLACLSAAAALYLSDPEGTCEDIRAGRWASRADHLLALLEGPKALAPGLSRLLQRIQAQTTGQPSAGEACVDPPQLLREAGVAGAPGSPGPVLATLLEHVGRGSCFHTLPTPQYFVDFVFQQSHGNTPNISVAELAALMQRLGVGGVTETHSDHHHQEKRVNRQGPTPLTAPNSSSDTWDTVCLSARDVMAVYGLSEQTGVTPEAWAQLSPALLQQQLSGACSPQPSHPAQNQLSQAEK . Value? 2

How about this protein: pZIP4-ECD A91T variant (domain or fragment) SGQGALDRVALGGLLNTLAARVHCTSGPCGKCLSVDDLLALGRPEEPGHLARLSATAALYLSDPEGTCEDIRAGRWASRADHLLALLEGPKALAPGLSRLLQRIQAQTTGQPSAGEACVDPPQLLREAGVAGAPGSPGPVLATLLEHVGRGSCFHTLPTPQYFVDFVFQQSHGNTPNISVAELAALMQRLGVGGVTETHSDHHHQEKRVNRQGPTPLTAPNSSSDTWDTVCLSARDVMAVYGLSEQTGVTPEAWAQLSPALLQQQLSGACSPQPSHPAQNQLSQAEK 2
